- Test system: SK-MEL-5
- testProtocol: NCI tumour cell line growth inhibition, 48 h
The source made the active and inactive calls. Rule as the data show it: active = GI50 up to about 1.1 µM and inactive = higher.
property: GI50

| chemicalString | GI50 |
| --- | --- |
| COc1cc(/C=C/C(=O)OC[C@H](Br)[C@H](OC(C)=O)c2ccc3c(c2)OCO3)cc(OC)c1OC | > 100 µM (inactive) |

Query: GI50; subject: CC1=CC(C)(C)N=C2SC(c3ccc(Cl)cc3)=NN12
15.5 µM (inactive)

Query: GI50; subject: C/C=N\n1c(C)c(C#N)c(C#N)c1N
> 100 µM (inactive)

Query: GI50; subject: C=Cc1nc2nnc(CCCCCCCCc3nnc4nc(C=C)[nH]n34)n2[nH]1
41.6 µM (inactive)

###

Consider the following compounds and their measured GI50 readings.
- System: SK-MEL-28
- testProtocol: NCI tumour cell line growth inhibition, 48 h
The source made the active and inactive calls. Cut-off read from the data, not from the text of the source: active = GI50 up to about 1.1 µM and inactive = higher.

Completed entries (count: 3):
| compound | property | result |
| --- | --- | --- |
| [N-]=[N+]=NC(c1cn(C2CC(O)C(CO)O2)c(=O)[nH]c1=O)C(Cl)I (stereo unspecified) | GI50 | > 100 µM (inactive) |
| O=C(O)/C(=C\c1ccc(O)cc1)c1cccc2ccccc12 | GI50 | > 100 µM (inactive) |
| O=[N+]([O-])c1ccc(C2ON=C(c3ccccc3)N2C23CC4CC(CC(C4)C2)C3)cc1 (stereo unspecified) | GI50 | > 10 µM (inactive) |

# query: GI50 | item CC(O)C1CC1(CO)CNc1cc(Cl)nc(N)n1 (stereo unspecified) | system: SK-MEL-28
> 100 µM (inactive)

# query: GI50 | item Cn1c(=O)nc2n(-c3ccc(O)cc3)c3ccccc3nc-2c1=O | system: SK-MEL-28
> 100 µM (inactive)

# query: GI50 | item COc1cccc(C2c3cc4c(cc3OC(C)(N3CCCC3)C2C)OCO4)c1 (stereo unspecified) | system: SK-MEL-28
20.3 µM (inactive)

###

- Tested on: HOP-18
- testProtocol: NCI tumour cell line growth inhibition, 48 h
Calls of active or inactive are those of the source. Cut-off read from the data, not from the text of the source: active = GI50 up to about 1.1 µM and inactive = higher.
Select the matching outcome among active, inactive

| compound | assignedCategory |
| --- | --- |
| COc1cc(CNc2ccc(SC)cc2)cc(OC)c1OC | inactive |
| CC(=O)O[C@H]1C(=O)[C@@]2(C)C(C(OC(=O)c3ccccc3)[C@]3(O)C[C@H](OC(=O)C(OC(=O)CCCC(=O)NCCCN(C)C)C(NC(=O)c4ccccc4)c4ccccc4)C(C)=C1C3(C)C)C1(OC(C)=O)COC1C[C@@H]2O (stereo partly specified) | active |

Please state the recorded outcome for this compound: O=C(O)c1cc(-c2ccccc2O)nc2ccccc12
inactive

Please state the recorded outcome for this compound: Cc1cc(N(CC(C)Br)CC(C)Br)ccc1/N=N/c1ccccc1C(=O)O (stereo unspecified)
inactive

Please state the recorded outcome for this compound: OCC1=CC(NC2CC(CO)C(O)C(O)C2O)C(O)C(O)C1O (stereo unspecified)
inactive

Please state the recorded outcome for this compound: Cc1ccc(S(=O)(=O)c2ccccn2)cc1
inactive

Please state the recorded outcome for this compound: CN(C)CCN(C)C(=O)c1cccc2cccc(C(=O)O)c12
inactive

Please state the recorded outcome for this compound: CC(=O)Oc1c(OC(C)=O)c(-c2ccc(O)c(O)c2)c(O)c(O)c1-c1ccc(O)cc1
inactive

Please state the recorded outcome for this compound: Sc1nnc(COc2ccc(Cl)cc2)o1
inactive

Please state the recorded outcome for this compound: CC(C)(C)NNC(=O)CCn1[nH]c(=O)c(Cl)c(Cl)c1=O
inactive

Please state the recorded outcome for this compound: CC(C)CC/N=c1/cc2n(-c3ccc(Cl)cc3)c3ccccc3nc-2cc1Nc1ccc(Cl)cc1
inactive

Please state the recorded outcome for this compound: CCOC(=O)C(C)OC(=O)c1ccc(C)cc1 (stereo unspecified)
inactive

Please state the recorded outcome for this compound: O=c1c2ccccc2n2nnc3ccc(NCCNCCO)c1c32
active
